target: RUNX1 (UniProt Q01196); assay: RUNX1 binding intensity (PBM fluorescence) in presence of ETS1, normalised to RUNX1-only experiment (arbitrary fluorescence units); higher = stronger binding; settings: RUNX1 concentration 2 nM; ETS1 concentration 25 nM
Sequence (Q01196 whole entry): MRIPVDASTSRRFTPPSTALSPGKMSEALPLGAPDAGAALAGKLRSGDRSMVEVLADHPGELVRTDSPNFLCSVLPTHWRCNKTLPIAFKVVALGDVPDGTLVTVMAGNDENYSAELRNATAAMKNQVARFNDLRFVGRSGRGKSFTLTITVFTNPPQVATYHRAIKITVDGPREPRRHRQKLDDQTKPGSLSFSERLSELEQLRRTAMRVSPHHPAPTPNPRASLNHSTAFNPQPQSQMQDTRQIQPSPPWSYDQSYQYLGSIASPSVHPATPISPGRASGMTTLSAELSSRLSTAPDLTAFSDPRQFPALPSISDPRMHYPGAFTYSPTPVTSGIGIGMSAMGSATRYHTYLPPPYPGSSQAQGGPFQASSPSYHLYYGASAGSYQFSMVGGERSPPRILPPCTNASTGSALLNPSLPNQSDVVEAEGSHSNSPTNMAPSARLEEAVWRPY
RUNX1 binding intensity for assorted sequences
Write the number on its own, no unit after it.

sequence_record | test_system | endpoint_label | experimental_value
CCGCCCCCGGACGGTCACAGCACCCAAACCGCAGGC | RUNX1 (UniProt Q01196) | RUNX1 binding intensity | 3240
AGGTTCCGGCGAAAGTGACCGAAAGTAACCGCCGGG | RUNX1 (UniProt Q01196) | RUNX1 binding intensity | 967
GATGAAAGAGGAAGTTCTCAAACCACCTTGCCAGTG | RUNX1 (UniProt Q01196) | RUNX1 binding intensity | 1110

Proceed to the following item.
Ask | Name the reported RUNX1 binding intensity value associated with the sequence GGGCAGGAAGGAAGAGGGCTCCTCCCCACAAGCTCT
Reply | 862

---

ETS1 binding intensity for assorted sequences
Target: ETS1 (UniProt P14921)
Sequence: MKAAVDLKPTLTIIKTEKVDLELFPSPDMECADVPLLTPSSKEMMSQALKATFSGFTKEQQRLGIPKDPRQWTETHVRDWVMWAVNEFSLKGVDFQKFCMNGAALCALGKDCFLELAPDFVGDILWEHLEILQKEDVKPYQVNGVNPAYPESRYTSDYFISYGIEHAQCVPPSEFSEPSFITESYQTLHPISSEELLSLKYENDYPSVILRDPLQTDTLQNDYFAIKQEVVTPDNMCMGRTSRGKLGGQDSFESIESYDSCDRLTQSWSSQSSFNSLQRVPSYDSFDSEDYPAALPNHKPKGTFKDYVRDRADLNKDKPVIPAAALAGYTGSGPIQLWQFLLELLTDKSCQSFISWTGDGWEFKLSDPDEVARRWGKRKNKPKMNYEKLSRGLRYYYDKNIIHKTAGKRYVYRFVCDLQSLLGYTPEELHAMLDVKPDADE
Experiment: ETS1 binding intensity (PBM fluorescence), ETS1 alone (arbitrary fluorescence units); higher = stronger binding
Settings: ETS1 concentration 1 nM; RUNX1 concentration 0 nM
Write the number on its own, no unit after it.

sequence_record | endpoint_label | experimental_value
TTCAACAGGATATTGCTTTGTTACCACAGGCCCTTT | ETS1 binding intensity | 1590
GGGGAAGAGGAAGCTGTGTCCGCGGTGCAAGGGGTT | ETS1 binding intensity | 533

Ask | Name the reported ETS1 binding intensity value associated with the sequence TAAAGCGGAAGGGGCCGGCTCTGCGGCCTGGCCGCT
Reply | 553

Ask | Next sequence: GGTTCATTTCCTTTTCCTCCTTGTGGTATAAAAGAG
Reply | 697

Ask | Next sequence: GAAGCTCCCCAAACAGGATGTGGTTAGGGAGAGGGG
Reply | 8040

Ask | Next sequence: ACCAGAACAGGAAATGTTAGTGGTTGAGTTAACGGT
Reply | 3760

---

target: RUNX1 (UniProt Q01196); assay: RUNX1 binding intensity (PBM fluorescence), RUNX1 alone (arbitrary fluorescence units); higher = stronger binding; details: RUNX1 concentration 2 nM; ETS1 concentration 0 nM
Rule: RUNX1 binding intensity of 1000 or more gives label 1; anything lower gives label 0.

Examples with answers:
sequence_record | qualitative_label
AGACCCGGAAGAACTTGTCCCAGTGTTGACCACACC | label 0
CCTGCTGCTTCCGCCCGGAGTTGTTGTGGGCTCCAG | label 0
ACATTTCCTTTTGGTATTTAAAGTAACCACACAGAA | label 1
AATTGAGACAGGAAATGTTGGTTTGTGGTCAGGCAC | label 1
CATTGATCAAAGACAGGATGTGGTAACAGGCAGTTA | label 0

Ask | Answer whether RUNX1 binding intensity of GCTGCCACTTCCCTTGCTTATTTCATGTGGTTTGGA is greater than or equal to 1000.
Reply | label 1

Origin of the recorded values: the supplement of paper PMC10681739
